# Lookup of reported % Max Blocking keyed by entry
biological target: T1, hRET.mmh (human, UniProt P07949 29-635, biotinylated in the ELISA of Example 4 (biot-hRET.mmh); not in the SPR of Example 3); test: competition sandwich ELISA: 1 nM biot-hRET.mmh + antibody, plate-coated GDNF/GFRα1 co-complex
T1 construct: also called biot-hRET.mmh; soluble monomeric human RET
The reply should contain only the number, in %.

Name the recorded % Max Blocking for H4H8045P (antibody, human IgG4, V domains shown, human IgG4 Fc (H4H prefix)) VH: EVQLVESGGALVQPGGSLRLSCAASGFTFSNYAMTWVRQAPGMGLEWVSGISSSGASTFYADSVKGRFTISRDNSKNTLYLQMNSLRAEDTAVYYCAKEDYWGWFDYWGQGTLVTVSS VL: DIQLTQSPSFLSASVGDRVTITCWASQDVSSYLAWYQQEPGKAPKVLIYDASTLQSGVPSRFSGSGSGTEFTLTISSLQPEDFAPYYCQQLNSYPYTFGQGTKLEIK . 75

What about H4H8067P (antibody, human IgG4, V domains shown, human IgG4 Fc (H4H prefix)) VH: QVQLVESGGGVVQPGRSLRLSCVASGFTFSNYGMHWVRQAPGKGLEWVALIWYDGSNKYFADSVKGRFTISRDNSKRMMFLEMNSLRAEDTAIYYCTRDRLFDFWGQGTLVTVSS VL: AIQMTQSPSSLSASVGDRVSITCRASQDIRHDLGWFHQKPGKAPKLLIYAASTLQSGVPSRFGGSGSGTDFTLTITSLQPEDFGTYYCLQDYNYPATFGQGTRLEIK ? 95

Next binder, please.
Recorded % Max Blocking for H4H8083P (antibody, human IgG4, V domains shown, human IgG4 Fc (H4H prefix)) VH: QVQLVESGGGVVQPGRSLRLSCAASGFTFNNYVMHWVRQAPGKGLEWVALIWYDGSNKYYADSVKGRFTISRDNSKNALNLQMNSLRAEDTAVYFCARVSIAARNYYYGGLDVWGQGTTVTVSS VL: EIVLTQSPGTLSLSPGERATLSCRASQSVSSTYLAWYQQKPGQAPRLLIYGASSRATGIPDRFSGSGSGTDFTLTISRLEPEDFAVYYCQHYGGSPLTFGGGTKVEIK , please? 95
